# Tested on: mongrel cats
# TEST_SUMMARY: Inotropic and heart-circulatory effectiveness on narcotised cats, intravenous
# Type: in vivo, cat
# MEASUREMENT_SETUP: 1.00 mg/kg i.v.; 6 animals
Classification field: 1 = dp/dt (inotropism) Δ at or over -2000 mm.Hg/sec; -1 = dp/dt (inotropism) Δ under -2000 mm.Hg/sec.

Answered examples (4):
>>> df
                                   compound  assigned_category
0  N#Cc1ccccc1OCC(O)CN[C@H]1CO[C@H]2[C@@H]1OC[C@@H]2O[N+](=O)[O-] (stereo partly shown) [Example 50]                 -1
1  O=[N+]([O-])O[C@H]1CO[C@H]2[C@@H]1OC[C@H]2NCC(O)COc1cccc2ccccc12 (stereo partly shown) [Example 55]                  1
2  C=CCc1ccccc1OCC(O)CN[C@H]1CO[C@H]2[C@@H]1OC[C@@H]2O[N+](=O)[O-] (stereo partly shown) [Example 49]                 -1
3  O=[N+]([O-])O[C@H]1CO[C@H]2[C@@H]1OC[C@@H]2NCCCc1ccccc1 [Example 28]                  1

Challenge: hey, is dp/dt (inotropism) Δ for this one >= -2000 mm.Hg/sec? O=[N+]([O-])O[C@H]1CO[C@H]2[C@@H]1OC[C@@H]2NCCCOc1ccccc1 [Example 36]
Response given: -1

Challenge: hey, is dp/dt (inotropism) Δ for this one >= -2000 mm.Hg/sec? CN(CCCOc1ccccc1)[C@H]1CO[C@H]2[C@@H]1OC[C@@H]2O[N+](=O)[O-] [Example 34]
Response given: 1

Challenge: hey, is dp/dt (inotropism) Δ for this one >= -2000 mm.Hg/sec? CCOc1ccccc1OCC(O)CN[C@H]1CO[C@H]2[C@@H]1OC[C@@H]2O[N+](=O)[O-] (stereo partly shown) [Example 47]
Response given: -1

---

Each entry below lists one item and its recorded Frequency of death value.
# Tested on: female NMRI-albino mice
# TEST_SUMMARY: Acute toxicity, intravenous, mice
# Type: in vivo
# MEASUREMENT_SETUP: 200 mg/kg i.v., within 24 hours

In [3]: df
Out[3]:
                         structure_notation  result
0  O=[N+]([O-])O[C@H]1CO[C@H]2[C@@H]1OC[C@@H]2NCCOc1ccccc1     3/3

Sample CC(=O)N[C@H]1CO[C@H]2[C@@H]1OC[C@@H]2O[N+](=O)[O-] ; Frequency of death observed: 0/3

Sample N[C@H]1CO[C@H]2[C@@H]1OC[C@@H]2O[N+](=O)[O-] ; Frequency of death observed: 0/3

Sample O=[N+]([O-])O[C@@H]1CO[C@H]2[C@@H]1OC[C@@H]2NCCCCc1ccccc1 ; Frequency of death observed: 6/6

---

# Test system: mongrel cats
# TEST_SUMMARY: Inotropic and heart-circulatory effectiveness on narcotised cats, intravenous
# Format: in vivo, cat
# MEASUREMENT_SETUP: 2.50 mg/kg i.v.; 6 animals
Each entry below lists one item and its recorded blood pressure WD value.

Examples with their reported blood pressure WD follow.
In [3]: df
Out[3]:
                                   molecule     result
0  O=[N+]([O-])O[C@H]1CO[C@H]2[C@@H]1OC[C@@H]2NCC(O)COc1cccc2ccccc12 (stereo partly drawn)    6.4 min
1  CN(CCCOc1ccccc1)[C@H]1CO[C@H]2[C@@H]1OC[C@@H]2O[N+](=O)[O-]  > 9.0 min

Consider the additional molecule presented here.
Observed blood pressure WD on mongrel cats, entry C=CCc1ccccc1OCC(O)CN[C@H]1CO[C@H]2[C@@H]1OC[C@@H]2O[N+](=O)[O-] (stereo partly drawn) , equals > 10 min

---

# System: mongrel cats
# TEST_SUMMARY: Inotropic and heart-circulatory effectiveness on narcotised cats, intravenous
# Assay type: in vivo, cat
# MEASUREMENT_SETUP: 1.00 mg/kg i.v.; 6 animals
Each entry below lists one item and its recorded dp/dt WD value.

Examples with their reported dp/dt WD follow.
In [3]: df
Out[3]:
                                   compound  target_entity    result
0  O=[N+]([O-])O[C@H]1CO[C@H]2[C@@H]1OC[C@H]2NCC(O)COc1cccc2ccccc12 (some centres unmarked)   mongrel cats   8.9 min
1  N#Cc1ccccc1OCC(O)CN[C@H]1CO[C@H]2[C@@H]1OC[C@@H]2O[N+](=O)[O-] (some centres unmarked)   mongrel cats  14.8 min
2  C=CCc1ccccc1OCC(O)CN[C@H]1CO[C@H]2[C@@H]1OC[C@@H]2O[N+](=O)[O-] (some centres unmarked)   mongrel cats  > 40 min
3  O=[N+]([O-])O[C@H]1CO[C@H]2[C@@H]1OC[C@@H]2NCCCCCc1ccccc1   mongrel cats  23.6 min

Sample O=[N+]([O-])O[C@H]1CO[C@H]2[C@@H]1OC[C@@H]2NCCCc1ccccc1 ; dp/dt WD observed: 23.0 min

Sample O=[N+]([O-])O[C@H]1CO[C@H]2[C@@H]1OC[C@@H]2NCC(O)COc1cccc(C(F)(F)F)c1 (some centres unmarked) ; dp/dt WD observed: 15.3 min

Sample CN(CCCOc1ccccc1)[C@H]1CO[C@H]2[C@@H]1OC[C@@H]2O[N+](=O)[O-] ; dp/dt WD observed: 4.2 min

Sample O=[N+]([O-])O[C@H]1CO[C@H]2[C@@H]1OC[C@@H]2NCCCCc1ccccc1 ; dp/dt WD observed: 25.5 min

---

# Tested on: mongrel cats
# TEST_SUMMARY: Inotropic and heart-circulatory effectiveness on narcotised cats, intravenous
# Type: in vivo, cat
# MEASUREMENT_SETUP: 0.25 mg/kg i.v.; 6 animals
API: label(entry) gives YES if the entry's heart frequency after is strictly smaller than 200 min⁻¹; on equality or larger values it gives NO.

Answered examples (5):
>>> df
                                   molecule  assigned_category
0  CCOc1ccccc1OCC(O)CN[C@H]1CO[C@H]2[C@@H]1OC[C@@H]2O[N+](=O)[O-] (some centres unmarked)                YES
1  O=[N+]([O-])O[C@H]1CO[C@H]2[C@@H]1OC[C@@H]2NCC(O)COc1cccc2ccccc12 (some centres unmarked)                YES
2  O=[N+]([O-])O[C@H]1CO[C@H]2[C@@H]1OC[C@H]2NCC(O)COc1cccc2ccccc12 (some centres unmarked)                YES
3  O=[N+]([O-])O[C@H]1CO[C@H]2[C@@H]1OC[C@@H]2NCC(O)COc1cccc(C(F)(F)F)c1 (some centres unmarked)                 NO
4  O=[N+]([O-])O[C@H]1CO[C@H]2[C@@H]1OC[C@@H]2NCCCc1ccccc1                 NO

# next molecule below
Challenge: State whether 200 min⁻¹ exceeds heart frequency after recorded for CN(CCCOc1ccccc1)[C@H]1CO[C@H]2[C@@H]1OC[C@@H]2O[N+](=O)[O-] .
Response given: YES

---

Each entry below lists one item and its recorded Frequency of death value.
# Test system: female NMRI-albino mice
# TEST_SUMMARY: Acute toxicity, intravenous, mice
# Format: in vivo
# MEASUREMENT_SETUP: 200 mg/kg i.v., within 24 hours

Examples with their reported Frequency of death follow.
In [3]: df
Out[3]:
                                   compound            target_entity  experimental_endpoint  result
0  COc1ccccc1OCC(O)CN[C@H]1CO[C@H]2[C@@H]1OC[C@@H]2O[N+](=O)[O-] (some centres unmarked) [Example 46]  female NMRI-albino mice     Frequency of death     2/3
1  O=[N+]([O-])O[C@H]1CO[C@H]2[C@@H]1OC[C@@H]2NCC(O)COc1cccc(C(F)(F)F)c1 (some centres unmarked) [Example 52]  female NMRI-albino mice     Frequency of death     6/6
2  O=[N+]([O-])O[C@@H]1CO[C@H]2[C@@H]1OC[C@@H]2NCCCOc1ccccc1 [Example 42]  female NMRI-albino mice     Frequency of death     6/6
3  O=[N+]([O-])O[C@H]1CO[C@H]2[C@@H]1OC[C@@H]2N1CCCCC1 [15 b]  female NMRI-albino mice     Frequency of death     6/6
4  COc1ccc(OCC(O)CN[C@H]2CO[C@H]3[C@@H]2OC[C@@H]3O[N+](=O)[O-])cc1 (some centres unmarked) [Example 44]  female NMRI-albino mice     Frequency of death     2/3
5  Cc1cccc(OCC(O)CN[C@H]2CO[C@H]3[C@@H]2OC[C@@H]3O[N+](=O)[O-])c1 (some centres unmarked) [Example 51]  female NMRI-albino mice     Frequency of death     6/6
6  O=[N+]([O-])O[C@H]1CO[C@H]2[C@@H]1OC[C@@H]2NCc1ccccc1 [Example 25]  female NMRI-albino mice     Frequency of death     6/6

Consider the additional compound presented here.
Observed Frequency of death on female NMRI-albino mice, entry CN1CCN([C@H]2CO[C@H]3[C@@H]2OC[C@@H]3O[N+](=O)[O-])CC1 [17 b] , equals 0/3

The reported numbers originate from patent US4363805A.
